All values here come from patent US10597388B2.

# reported Plant response rating, Pigweed; entries follow
Tested on: pigweed (Amaranthus retroflexus)
Experiment: Test A greenhouse herbicide test, pre- and postemergence
Assay type: in vivo
Settings: Preemergence, 500 g ai/ha; 0 to 100 scale where 0 is no effect and 100 is complete control
Could you respond with only the numeric value?

Note Plant response rating, Pigweed for the molecule shown: COC(=O)Oc1c(C)nn(C)c(=O)c1-c1c(C(F)(F)F)ccc2ccccc12
100

Identify Plant response rating, Pigweed associated with the molecule COC(=O)Oc1c(C)nn(C)c(=O)c1-c1ccc(Br)c2ccccc12
100

###

Tested on: galium (catchweed bedstraw, Galium aparine)
Test: Test A greenhouse herbicide test, postemergence
Type: in vivo
Conditions: 125 g ai/ha, 0 to 100 scale where 0 is no effect and 100 is complete control
The following molecules are shown together with reported Plant response rating, Galium values.

COc1nn(C)c(=O)c(-c2c(C)sc3ccc(Cl)cc23)c1OC(C)=O : 60
CCOc1ccc2oc(CC)c(-c3c(O)c(C)nn(C)c3=O)c2c1 : 0
CCC(=O)Oc1c(C)nn(C)c(=O)c1-c1ccc(Br)c2ccccc12 : 100
CCCC(=O)Oc1c(C)nn(C)c(=O)c1-c1c(CC)sc2ccc(C)cc12 : 100
COC(=O)Oc1c(C)nn(C)c(=O)c1-c1ccc(Cl)c2ccccc12 : 100

Now consider a different molecule.
Please look at this molecule and report its Plant response rating, Galium: CC(=O)Oc1c(C)nn(C)c(=O)c1-c1c(C)cc(C)c2ccccc12
100
